target: His6-TEV-PPARγ-(234-505) (Homo sapiens); construct: The His6-TEV-PPARγ-(234-505) protein for assay was expressed and purified; TEV cleavage site (N); made in house; test: TR-FRET Assay to Measure Co-R Peptide Recruitment to PPARγ; format: biochemical; settings: Co-R peptide (SMRT-ID2) recruitment; top final concentration 20 μM; read-out: TR-FRET i-Ag; AC50

| Compound | AC50 [nM] |
| --- | --- |
| COc1cc(-c2cc(C(=O)N3CC[C@H](C(=O)NC4CCC(C(F)(F)F)C(O)C4)CC34CC4)n[nH]2)c(F)cn1 (single isomer, unassigned) [Example 501-B] | 51.1 |
| COc1cc(-c2cc(C(=O)N3CCC(C(=O)NCc4cccc5ccnn45)CC3)n[nH]2)c(Cl)cn1 [Example 137] | 130 |
| COc1cc(-c2cc(C(=O)N3CCC(C(=O)NCc4ccc(C)cn4)CC3)n[nH]2)c(Cl)cn1 [Example 176] | 376 |

---

# reported log10(AC50); entries follow
Molecular target: His6-TEV-PPARγ-(234-505) (Homo sapiens, UniProt P37231)
Construct: The His6-TEV-PPARγ-(234-505) protein for assay was expressed and purified; TEV cleavage site (N); made in house
Sequence (P37231 234-505): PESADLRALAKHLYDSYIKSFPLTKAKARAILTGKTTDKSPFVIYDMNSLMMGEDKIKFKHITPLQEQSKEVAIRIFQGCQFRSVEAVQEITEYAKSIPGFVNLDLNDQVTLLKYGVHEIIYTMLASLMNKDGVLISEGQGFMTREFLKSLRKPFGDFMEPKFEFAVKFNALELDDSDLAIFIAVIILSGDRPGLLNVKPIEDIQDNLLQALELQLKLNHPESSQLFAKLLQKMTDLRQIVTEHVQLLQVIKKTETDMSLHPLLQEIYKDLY
Experiment: TR-FRET Assay to Measure Co-R Peptide Recruitment to PPARγ
Type: biochemical
Settings: Co-R peptide (SMRT-ID2) recruitment; top final concentration 20 μM; read-out: TR-FRET i-Ag; AC50
Method: TR-FRET Assay to Measure Co—R Peptide Recruitment to PPARγ The 2× detection solution contained anti-6×His-Terbium antibody (CisBio) and FITC labeled Co—R peptide (SMRT-ID2 from New England Peptide) at final concentrations of 5 and 200 nM respectively. In these assay plates, the positive control in column 24 contained 500 nM (final) T0070907 and the negative control in column 23 contained an identical volume of DMSO. […] Experiments were performed in triplicate and analyzed in GraphPad Prism 7.
Readout Name: log10(AC50) (log10 of the value in nM)

| Compound | log10(AC50) |
| --- | --- |
| COc1cc(-c2cc(C(=O)N3CCC(C(=O)NC4CCN(c5cnnc(C)c5)C4)CC34CC4)n[nH]2)c(F)cn1 (mixture of isomers) [Example 452] | 1.52 |
| COc1cc(-c2cc(C(=O)N3CC[C@H](C(=O)NC4CCC5CCCN5C4)CC34CC4)n[nH]2)c(F)cn1 (single isomer, unassigned) [Example 376-D] | 2.11 |
| COc1cc(-c2cc(C(=O)N3CCC(C(=O)Nc4cnc(C)c(C)n4)CC3)n[nH]2)c(Cl)cn1 [Example 260] | 2.99 |
| COc1cc(-c2cc(C(=O)N3CCC(C(=O)NCc4n[nH]c5ccccc45)CC3)n[nH]2)c(Cl)cn1 [Example 201] | 1.89 |
| COc1cc(-c2cc(C(=O)N3CCC(C(=O)NCc4ncc5c(n4)CCC5)CC3)n[nH]2)c(Cl)cn1 [Example 241] | 2.94 |
| COc1cc(-c2cc(C(=O)N3CC[C@H](C(=O)NC4CCC(C)(C)N(C)C4)CC34CC4)n[nH]2)c(F)cn1 (single isomer, unassigned) [Example 424-A] | 3.01 |
| COc1cc(-c2cc(C(=O)N3CCC(C(=O)NCc4ncoc4C(F)(F)F)CC3)n[nH]2)c(Cl)cn1 [Example 221] | 2.45 |
| COc1cc(-c2cc(C(=O)N3CC[C@@H](C(=O)N[C@H]4CC[C@@](O)(C(F)(F)F)CC4)CC34CC4)n[nH]2)c(F)cn1 (single isomer, unassigned) [Example 169-A] | 1.90 |
| COc1cc(-c2cc(C(=O)N3CC[C@H](C(=O)NCc4ncc(C#N)cc4Cl)CC34CC4)n[nH]2)c(F)cn1 [Example 391] | 1.29 |
| COc1cc(-c2cc(C(=O)N3CC[C@H](C(=O)NCc4ncc(C(F)(F)F)[nH]4)CC34CC4)[nH]n2)c(F)cn1 [Example 476] | 1.24 |
| COc1cc(-c2cc(C(=O)N3CC[C@H](C(=O)NCc4cn(C)nc4C(F)(F)F)CC34CC4)[nH]n2)c(F)cn1 [Example 509] | 0.62 |
| COc1cc(-c2cc(C(=O)N3CC[C@H](C(=O)N[C@@H]4CCN(CC(C)(C)O)C4)CC34CC4)[nH]n2)c(F)cn1 [Example 344-B] | 2.09 |
| COc1cc(-c2cc(C(=O)N3CC[C@H](C(=O)NCc4conc4C(F)(F)F)CC34CC4)[nH]n2)c(F)cn1 [Example 505] | 0.84 |

---

AC50 for assorted molecules
biological target: His6-TEV-PPARγ-(234-505) (Homo sapiens, UniProt P37231); construct: The His6-TEV-PPARγ-(234-505) protein for assay was expressed and purified; TEV cleavage site (N); made in house; assay: TR-FRET Assay to Measure Co-R Peptide Recruitment to PPARγ; assay type: biochemical; details: Co-R peptide (SMRT-ID2) recruitment; top final concentration 20 μM; read-out: TR-FRET i-Ag; AC50
Readout Name: AC50 (µM)

| Molecule | Recorded Result |
| --- | --- |
| CC[C@H]1CC[C@@H](NC(=O)C2CCN(C(=O)c3cc(-c4ccnc(OC)c4)[nH]n3)CC2)CC1 (single isomer, unassigned) [Example 108-A] | 0.16 |
| COc1cc(-c2cc(C(=O)N3CCC(C(=O)NCc4nccc5[nH]ccc45)CC3)n[nH]2)c(Cl)cn1 [Example 254] | 0.0588 |
| CC1CCC(NC(=O)C2CCN(C(=O)c3cc(-c4ccncc4Cl)[nH]n3)CC2)CC1 (mixture of isomers) [Example 109] | 0.373 |
| COc1cc(-c2cc(C(=O)N3CC[C@H](C(=O)NC4CCN(C5COC56CNC6)C4)CC34CC4)n[nH]2)c(F)cn1 (single isomer, unassigned) [Example 461-D] | 0.388 |
| COc1cc(-c2cc(C(=O)N3CCC(C(=O)NCc4cnc5c(cnn5C)c4)CC3)n[nH]2)c(Cl)cn1 [Example 232] | 0.516 |
| COc1cc(-c2cc(C(=O)N3CCC(C(=O)NC4CCN(c5cnc(C)nc5)C4)CC34CC4)n[nH]2)c(F)cn1 (mixture of isomers) [Example 453] | 0.0256 |
| COc1cc(-c2cc(C(=O)N3CCC(C(=O)Nc4cnn5c4CC(O)CC5)CC34CC4)n[nH]2)c(F)cn1 (mixture of isomers) [Example 514] | 0.0337 |
| Cc1cc(-c2cc(C(=O)N3[C@@H]4CC[C@H]3C[C@H](C(=O)N[C@H]3CC[C@@](O)(C(F)(F)F)CC3)C4)n[nH]2)c2cn[nH]c2n1 [Example 315] | 0.863 |
| COc1cc(-c2cc(C(=O)N3CCC(C(=O)NCc4nccc(C(F)(F)F)n4)CC3)n[nH]2)c(Cl)cn1 [Example 209] | 0.319 |
| COc1cc(-c2cc(C(=O)N3CCC(C(=O)NCc4ncc(N5CCNC6CC65)cn4)CC34CC4)n[nH]2)c(F)cn1 (mixture of isomers) [Example 469] | 0.0785 |
| COc1cc(-c2cc(C(=O)N3CCC(C(=O)NC4CN(C)Cc5ccccc54)CC3)n[nH]2)c(Cl)cn1 (racemic) [Example 227] | 0.947 |
| COc1cc(-c2cc(C(=O)N3CC[C@H](C(=O)NC4CC5CCC(C4)O5)CC34CC4)n[nH]2)c(F)cn1 (stereo partly shown) [Example 354] | 0.0241 |
| COc1cc(-c2cc(C(=O)N3CC[C@H](C(=O)N[C@H]4CN(c5ccc(C)nc5)C[C@H]4F)CC34CC4)n[nH]2)c(F)cn1 [Example 428] | 0.0547 |

---

biological target: His6-TEV-PPARγ-(234-505) (Homo sapiens, UniProt P37231); construct: The His6-TEV-PPARγ-(234-505) protein for assay was expressed and purified; TEV cleavage site (N); made in house; experiment: TR-FRET Assay to Measure Co-R Peptide Recruitment to PPARγ; type: biochemical; conditions: Co-R peptide (SMRT-ID2) recruitment; top final concentration 20 μM; read-out: TR-FRET i-Ag; AC50

| Compound | Unit Tag | AC50 |
| --- | --- | --- |
| COc1cc(-c2[nH]nc(C(=O)N3CCC(C(=O)NC4CCC(C)CC4)CC3)c2Cl)ccn1 (mixture of isomers) | µM | 0.575 |
| COc1cnc(CNC(=O)[C@H]2CCN(C(=O)c3cc(-c4cc(OC)ncc4F)[nH]n3)C3(CC3)C2)nc1 | µM | 0.0679 |
| COc1cc(-c2cc(C(=O)N3CC[C@@H](C(=O)N[C@H]4CCN(CC(C)(C)O)C4)CC34CC4)[nH]n2)c(F)cn1 | µM | 7.25 |
| COc1cc(-c2cc(C(=O)N3CCC(C(=O)NCc4cccc(Cl)c4)C(F)C3)n[nH]2)c(Cl)cn1 (mixture of isomers) | µM | 0.0298 |
| COc1cc(-c2cc(C(=O)N3CC[C@H](C(=O)NC4CCN(CC(C)(C)O)C4)CC34CC4)[nH]n2)c(F)cn1 (stereo partly shown) | µM | 0.161 |
| COc1cc(-c2cc(C(=O)N3CCC(C(=O)NC4CC5COCC(C4)N5C)CC34CC4)n[nH]2)c(F)cn1 (stereo not shown) | µM | 0.359 |
| COc1cc(-c2cc(C(=O)N3CCC(C(=O)NCc4cccc(Cl)c4)CC3)n[nH]2)c(F)cn1 | µM | 0.0271 |
